Target: Neuropeptide Y receptor type 4 (Homo sapiens)
Assay: Antagonist activity at human neuropeptide Y receptor type 4 expressed in CHO cells co-expressing Gqi5-mtAEQ assessed as inhibition of hPP-induced calcium mobilization by Aequorin assay
Format: functional, cell-based
Kindly supply the reported Kb values for the records listed here.

NCCOCCOCCNC(=O)CCC(=O)NCCNC(=O)/N=C(\N)NCCC[C@H](NC(=O)C(c1ccccc1)c1ccccc1)C(=O)NCc1ccc(CNC(N)=O)cc1 = > 5000 nM
CCC(=O)NCCN(CCNC(=O)c1ccc(C(=O)NCCOCCOCCNC(=O)/N=C(/N)NCCC[C@@H](NC(=O)C(c2ccccc2)c2ccccc2)C(=O)NCc2ccc(O)cc2)cc1)CCNC(=O)c1ccc(C(=O)NCCOCCOCCNC(=O)/N=C(/N)NCCC[C@@H](NC(=O)C(c2ccccc2)c2ccccc2)C(=O)NCc2ccc(O)cc2)cc1 = 36 nM
NCCN(CCNC(=O)c1ccc(C(=O)NCCOCCOCCNC(=O)/N=C(/N)NCCC[C@@H](NC(=O)C(c2ccccc2)c2ccccc2)C(=O)NCc2ccc(O)cc2)cc1)CCNC(=O)c1ccc(C(=O)NCCOCCOCCNC(=O)/N=C(/N)NCCC[C@@H](NC(=O)C(c2ccccc2)c2ccccc2)C(=O)NCc2ccc(O)cc2)cc1 = 20 nM

Sure, the documented Kb for NCCN(CCNC(=O)CCC(=O)NCCCCCCNC(=O)/N=C(/N)NCCC[C@@H](NC(=O)C(c1ccccc1)c1ccccc1)C(=O)NCc1ccc(O)cc1)CCNC(=O)CCC(=O)NCCCCCCNC(=O)/N=C(/N)NCCC[C@@H](NC(=O)C(c1ccccc1)c1ccccc1)C(=O)NCc1ccc(O)cc1 is 33 nM

----------
Quick record: pKi, UniProt P50391.
Numbers only, as −log10 of the molar value.

These recorded examples may help you get a feel for the data.
NC(=NCCC[C@@H](NC(=O)C(c1ccccc1)c1ccccc1)C(=O)NCc1ccc(O)cc1)NC(=O)CCCCCCC(=O)NC(N)=NCCC[C@@H](NC(=O)C(c1ccccc1)c1ccccc1)C(=O)NCc1ccc(O)cc1 = 5.70
NCCN(CCNC(=O)CCCC(=O)/N=C(/N)NCCC[C@@H](NC(=O)C(c1ccccc1)c1ccccc1)C(=O)NCc1ccc(O)cc1)CCNC(=O)CCCC(=O)/N=C(/N)NCCC[C@@H](NC(=O)C(c1ccccc1)c1ccccc1)C(=O)NCc1ccc(O)cc1 = 6.41
NCCN(CCNC(=O)CCC(=O)NCCCCCCNC(=O)/N=C(\N)NCCC[C@H](NC(=O)CC1(CC(=O)N2CCN(C3c4ccccc4NC(=O)c4ccccc43)CC2)CCCC1)C(=O)NCCn1c(=O)n(-c2ccccc2)n(-c2ccccc2)c1=O)CCNC(=O)CCC(=O)NCCCCCCNC(=O)/N=C(\N)NCCC[C@@H](NC(=O)C(c1ccccc1)c1ccccc1)C(=O)NCc1ccc(O)cc1 (mixture of isomers) = 6.04

Sure, the documented pKi for N=C(N)NCCC[C@@H](NC(=O)C(c1ccccc1)c1ccccc1)C(=O)NCc1ccc(CNC(=O)NCCCCNC(=O)CNC(=O)CCC(=O)NCCN(CCN)CCNC(=O)CCC(=O)NCC(=O)NCCCCNC(=O)NCc2ccc(CNC(=O)[C@@H](CCCNC(=N)N)NC(=O)C(c3ccccc3)c3ccccc3)cc2)cc1 is 5.66

----------
Biological target: Neuropeptide Y receptor type 4 (Homo sapiens, UniProt P50391)
Sequence (P50391 whole entry): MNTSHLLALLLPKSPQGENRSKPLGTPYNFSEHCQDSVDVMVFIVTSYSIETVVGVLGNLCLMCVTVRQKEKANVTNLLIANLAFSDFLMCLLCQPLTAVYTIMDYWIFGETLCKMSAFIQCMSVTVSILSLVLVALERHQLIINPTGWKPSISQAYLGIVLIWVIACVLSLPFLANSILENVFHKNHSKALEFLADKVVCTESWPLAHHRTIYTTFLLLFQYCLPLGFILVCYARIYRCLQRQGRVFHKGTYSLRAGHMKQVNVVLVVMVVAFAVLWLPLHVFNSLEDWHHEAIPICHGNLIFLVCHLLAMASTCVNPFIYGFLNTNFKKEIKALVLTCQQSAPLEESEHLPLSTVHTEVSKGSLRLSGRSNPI
Test: Antagonist activity at human neuropeptide Y receptor type 4 expressed in CHO cells co-expressing Gqi5-mtAEQ assessed as inhibition of hPP-induced calcium mobilization by Aequorin assay
Assay type: functional, cell-based
Kindly supply the reported Kb values for the records listed here.
Give bare numbers, in nM.

These recorded examples may help you get a feel for the data.
NCCN(CCNC(=O)c1ccc(C(=O)NCCCCNC(=O)/N=C(/N)NCCC[C@@H](NC(=O)C(c2ccccc2)c2ccccc2)C(=O)NCc2ccc(O)cc2)cc1)CCNC(=O)c1ccc(C(=O)NCCCCNC(=O)/N=C(/N)NCCC[C@@H](NC(=O)C(c2ccccc2)c2ccccc2)C(=O)NCc2ccc(O)cc2)cc1 = 34
NCCN(CCNC(=O)CCC(=O)NCCOCCOCCNC(=O)/N=C(/N)NCCC[C@@H](NC(=O)C(c1ccccc1)c1ccccc1)C(=O)NCc1ccc(CNC(N)=O)cc1)CCNC(=O)CCC(=O)NCCOCCOCCNC(=O)/N=C(/N)NCCC[C@@H](NC(=O)C(c1ccccc1)c1ccccc1)C(=O)NCc1ccc(CNC(N)=O)cc1 = 96
NCCN(CCNC(=O)CCCCC(=O)NCCCCNC(=O)/N=C(/N)NCCC[C@@H](NC(=O)C(c1ccccc1)c1ccccc1)C(=O)NCc1ccc(O)cc1)CCNC(=O)CCCCC(=O)NCCCCNC(=O)/N=C(/N)NCCC[C@@H](NC(=O)C(c1ccccc1)c1ccccc1)C(=O)NCc1ccc(O)cc1 = 32

// next entry
Sure, the documented Kb for NCCN(CCNC(=O)c1ccc(C(=O)NCCOCCOCCNC(=O)/N=C(/N)NCCC[C@H](NC(=O)C(c2ccccc2)c2ccccc2)C(=O)NCc2ccc(O)cc2)cc1)CCNC(=O)c1ccc(C(=O)NCCOCCOCCNC(=O)/N=C(/N)NCCC[C@H](NC(=O)C(c2ccccc2)c2ccccc2)C(=O)NCc2ccc(O)cc2)cc1 is 27

----------
Quick record: Ki, Neuropeptide Y receptor type 4 (Homo sapiens).
Give bare numbers, in µM.

CCC(=O)NCCN(CCNC(=O)c1ccc(C(=O)NCCOCCOCCNC(=O)/N=C(/N)NCCC[C@@H](NC(=O)C(c2ccccc2)c2ccccc2)C(=O)NCc2ccc(O)cc2)cc1)CCNC(=O)c1ccc(C(=O)NCCOCCOCCNC(=O)/N=C(/N)NCCC[C@@H](NC(=O)C(c2ccccc2)c2ccccc2)C(=O)NCc2ccc(O)cc2)cc1 = 0.41

For every record below, what is its Ki?
1. NCCN(CCNC(=O)c1ccc(C(=O)NCCOCCOCCNC(=O)/N=C(/N)NCCC[C@@H](NC(=O)C(c2ccccc2)c2ccccc2)C(=O)NCc2ccc(O)cc2)cc1)CCNC(=O)c1ccc(C(=O)NCCOCCOCCNC(=O)/N=C(/N)NCCC[C@@H](NC(=O)C(c2ccccc2)c2ccccc2)C(=O)NCc2ccc(O)cc2)cc1
2. NCCN(CCNC(=O)CCCC(=O)NCCOCCOCCNC(=O)/N=C(/N)NCCC[C@@H](NC(=O)C(c1ccccc1)c1ccccc1)C(=O)NCc1ccc(O)cc1)CCNC(=O)CCCC(=O)NCCOCCOCCNC(=O)/N=C(/N)NCCC[C@@H](NC(=O)C(c1ccccc1)c1ccccc1)C(=O)NCc1ccc(O)cc1

### Response
1: 0.13; 2: 0.29

----------
Quick record: Ki, Neuropeptide Y receptor type 4 (Homo sapiens, UniProt P50391).
Answers are plain numbers, in µM.

NCCCOCCOCCOCCNC(=O)CCC(=O)NCCNC(=O)/N=C(\N)NCCC[C@H](NC(=O)C(c1ccccc1)c1ccccc1)C(=O)NCc1ccc(CNC(N)=O)cc1 = 3.7
NCCOCCOCCNC(=O)CCC(=O)NCCNC(=O)/N=C(\N)NCCC[C@H](NC(=O)C(c1ccccc1)c1ccccc1)C(=O)NCc1ccc(CNC(N)=O)cc1 = 3.2
NCCN(CCNC(=O)CCC(=O)NCCOCCOCCNC(=O)/N=C(/N)NCCC[C@@H](NC(=O)C(c1ccccc1)c1ccccc1)C(=O)NCc1ccc(O)cc1)CCNC(=O)CCC(=O)NCCOCCOCCNC(=O)/N=C(/N)NCCC[C@@H](NC(=O)C(c1ccccc1)c1ccccc1)C(=O)NCc1ccc(O)cc1 = 0.47
NCCN(CCNC(=O)CCC(=O)NCCOCCOCCNC(=O)/N=C(/N)NCCC[C@H](NC(=O)C(c1ccccc1)c1ccccc1)C(=O)NCc1ccc(CNC(N)=O)cc1)CCNC(=O)CCC(=O)NCCOCCOCCNC(=O)/N=C(/N)NCCC[C@H](NC(=O)C(c1ccccc1)c1ccccc1)C(=O)NCc1ccc(CNC(N)=O)cc1 = 0.31

// next entry
Sure, the documented Ki for NCCN(CCNC(=O)c1ccc(C(=O)NCCOCCOCCNC(=O)/N=C(/N)NCCC[C@H](NC(=O)C(c2ccccc2)c2ccccc2)C(=O)NCc2ccc(O)cc2)cc1)CCNC(=O)c1ccc(C(=O)NCCOCCOCCNC(=O)/N=C(/N)NCCC[C@H](NC(=O)C(c2ccccc2)c2ccccc2)C(=O)NCc2ccc(O)cc2)cc1 is 0.26

----------
Target: Neuropeptide Y receptor type 2 (Homo sapiens)
Sequence (P49146 whole entry): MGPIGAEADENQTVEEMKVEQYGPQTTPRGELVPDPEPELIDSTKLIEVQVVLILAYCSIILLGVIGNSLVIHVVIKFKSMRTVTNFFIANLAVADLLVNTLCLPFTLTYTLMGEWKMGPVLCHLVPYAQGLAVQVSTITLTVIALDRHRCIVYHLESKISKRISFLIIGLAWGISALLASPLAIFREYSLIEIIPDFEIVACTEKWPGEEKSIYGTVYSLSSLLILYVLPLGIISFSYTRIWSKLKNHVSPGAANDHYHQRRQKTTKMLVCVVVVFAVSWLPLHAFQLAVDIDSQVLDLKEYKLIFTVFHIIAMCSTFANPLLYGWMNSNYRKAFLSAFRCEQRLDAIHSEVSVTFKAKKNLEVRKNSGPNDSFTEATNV
ENDPOINT NAME: Ki

For every record below, what is its Ki?
1. NCCNC(=O)CCC(=O)NCCNC(=O)CCC(=O)NCCNC(=O)/N=C(\N)NCCC[C@H](NC(=O)C(c1ccccc1)c1ccccc1)C(=O)NCc1ccc(CNC(N)=O)cc1
2. NCCOCCOCCNC(=O)/N=C(/N)NCCC[C@H](NC(=O)C(c1ccccc1)c1ccccc1)C(=O)NCc1ccc(O)cc1

### Response
["> 5 µM", "> 5 µM"]

Sure, the documented Ki for NCCN(CCNC(=O)c1ccc(C(=O)NCCOCCOCCNC(=O)/N=C(/N)NCCC[C@H](NC(=O)C(c2ccccc2)c2ccccc2)C(=O)NCc2ccc(O)cc2)cc1)CCNC(=O)c1ccc(C(=O)NCCOCCOCCNC(=O)/N=C(/N)NCCC[C@H](NC(=O)C(c2ccccc2)c2ccccc2)C(=O)NCc2ccc(O)cc2)cc1 is 1.4 µM
